Experiment: CHI Log D procedure
Format: physicochemical
Conditions: pH 7.4, CHI Log D
RESULT_TYPE: chromatographic logD
The answer should be a number; do not append a unit.

Form field: reported chromatographic logD of CC(=O)N1CCC[C@]12CC=CCCCC1(CCCC=CCCCOC(=O)N3CC[C@@](C(=O)N[C@@H](Cc4ccsc4)C(=O)N[C@@H](Cc4csc5ccccc45)C(=O)N[C@@H](Cc4c[nH]cn4)C(N)=O)(C3)NC(=O)[C@H](CCCNC(N)=O)NC(=O)[C@H](Cc3ccccc3)NC(=O)[C@H](C)NC(=O)[C@H](C)NC(=O)[C@H](CC(=O)O)NC(=O)[C@H](CC(=O)O)NC1=O)NC(=O)[C@H](CC(C)(C)C)NC(=O)[C@H](CC(=O)O)NC2=O (stereo partly drawn) [I-806]
2.04

Repeat for the following compound: CC(=O)N1CCC[C@]12CC=CCCCC1(CCCC=CCCCCCC[C@@](C)(C(=O)N[C@@H](Cc3ccccc3)C(=O)N[C@@H](Cc3csc4ccccc34)C(=O)N[C@@H](CCC(N)=O)C(N)=O)NC(=O)[C@H](C)NC(=O)[C@H](Cc3ccc4ccccc4c3)NC(=O)[C@H](C)NC(=O)[C@H](C)NC(=O)[C@H](CC(=O)O)NC(=O)[C@H](CC(=O)O)NC1=O)NC(=O)[C@H](C)NC(=O)[C@H](CC(=O)O)NC2=O (stereo partly drawn) [I-370]
2.18

Now try CC(=O)N1CCC[C@]12CC=CCCCC1(CCCC=CCCCOC(=O)N3CC[C@@](C(=O)N[C@@H](Cc4ccccc4)C(=O)N[C@@H](Cc4csc5ccccc45)C(=O)N[C@@H](CO)C(N)=O)(C3)NC(=O)[C@H](CO)NC(=O)[C@H](Cc3ccccc3)NC(=O)[C@H](C)NC(=O)[C@H](C)NC(=O)[C@H](CC(=O)O)NC(=O)[C@H](CC(=O)O)NC1=O)NC(=O)[C@H](CC(C)(C)C)NC(=O)[C@H](CC(=O)O)NC2=O (stereo partly drawn) [I-1099] .
2.16
